Target: Porcine ventricle myofibrils (ventricular myosin ATPase) (Sus scrofa)
Construct: Myofibrils from porcine cardiac muscle was isolated from the left ventricle of Yucatan minipigs; tissue Exemplar Genetics; host or cells: left ventricle of Yucatan minipigs, myofibrils prepared in house
Sequence (P79293 whole entry): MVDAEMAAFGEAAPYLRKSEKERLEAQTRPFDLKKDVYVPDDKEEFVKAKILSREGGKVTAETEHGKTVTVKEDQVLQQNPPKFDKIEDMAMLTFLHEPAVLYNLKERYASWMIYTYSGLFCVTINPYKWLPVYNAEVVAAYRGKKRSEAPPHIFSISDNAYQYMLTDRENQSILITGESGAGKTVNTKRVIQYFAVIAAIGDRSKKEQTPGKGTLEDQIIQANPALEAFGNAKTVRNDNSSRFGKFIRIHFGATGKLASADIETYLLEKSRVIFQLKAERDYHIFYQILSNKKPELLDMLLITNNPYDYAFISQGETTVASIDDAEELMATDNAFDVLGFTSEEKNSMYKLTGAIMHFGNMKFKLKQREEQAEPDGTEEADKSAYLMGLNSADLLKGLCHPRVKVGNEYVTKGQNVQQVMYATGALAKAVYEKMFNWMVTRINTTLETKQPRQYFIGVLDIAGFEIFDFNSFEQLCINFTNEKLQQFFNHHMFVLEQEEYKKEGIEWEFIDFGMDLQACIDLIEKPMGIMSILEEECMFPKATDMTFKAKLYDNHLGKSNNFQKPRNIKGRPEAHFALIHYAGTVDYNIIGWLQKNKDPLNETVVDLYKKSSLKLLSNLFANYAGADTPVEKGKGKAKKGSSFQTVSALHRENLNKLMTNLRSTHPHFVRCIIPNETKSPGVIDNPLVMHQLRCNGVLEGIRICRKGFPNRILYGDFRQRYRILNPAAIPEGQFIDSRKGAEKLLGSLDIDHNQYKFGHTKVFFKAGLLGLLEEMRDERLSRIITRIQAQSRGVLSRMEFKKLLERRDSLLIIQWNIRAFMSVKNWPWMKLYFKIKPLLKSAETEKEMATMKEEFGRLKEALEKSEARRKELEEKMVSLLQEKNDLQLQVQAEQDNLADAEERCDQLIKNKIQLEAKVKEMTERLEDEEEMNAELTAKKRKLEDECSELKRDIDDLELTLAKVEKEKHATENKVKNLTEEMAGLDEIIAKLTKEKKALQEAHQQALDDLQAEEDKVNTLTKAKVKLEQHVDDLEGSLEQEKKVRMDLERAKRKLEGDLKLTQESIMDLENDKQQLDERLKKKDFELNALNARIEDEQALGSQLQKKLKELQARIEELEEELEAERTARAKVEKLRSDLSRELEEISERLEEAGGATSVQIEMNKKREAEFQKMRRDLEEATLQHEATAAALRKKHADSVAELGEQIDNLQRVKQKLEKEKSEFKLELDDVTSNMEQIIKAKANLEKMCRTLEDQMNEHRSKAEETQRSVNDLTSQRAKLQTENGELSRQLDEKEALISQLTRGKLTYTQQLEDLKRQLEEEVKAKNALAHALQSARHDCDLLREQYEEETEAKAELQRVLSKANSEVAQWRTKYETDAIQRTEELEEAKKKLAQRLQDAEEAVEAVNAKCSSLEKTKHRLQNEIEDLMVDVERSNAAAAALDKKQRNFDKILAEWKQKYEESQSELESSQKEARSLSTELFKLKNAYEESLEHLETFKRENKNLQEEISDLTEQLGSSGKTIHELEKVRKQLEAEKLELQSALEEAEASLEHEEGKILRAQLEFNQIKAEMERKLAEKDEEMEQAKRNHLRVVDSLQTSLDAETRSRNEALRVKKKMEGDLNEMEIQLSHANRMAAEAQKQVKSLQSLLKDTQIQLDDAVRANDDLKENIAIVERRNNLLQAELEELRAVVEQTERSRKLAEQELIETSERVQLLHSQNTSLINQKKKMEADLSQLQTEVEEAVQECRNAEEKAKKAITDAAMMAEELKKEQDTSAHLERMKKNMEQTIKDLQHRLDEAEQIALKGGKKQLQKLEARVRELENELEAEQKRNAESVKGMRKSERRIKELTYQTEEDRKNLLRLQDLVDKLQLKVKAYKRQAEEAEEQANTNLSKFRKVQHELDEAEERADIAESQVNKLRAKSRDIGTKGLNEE
Test: Myofibril ATPase assay, porcine ventricle myofibrils
Type: biochemical, porcine (Yucatan minipigs)
Conditions: Y75 value (no ‡ mark); porcine ventricle myofibrils
assay-metric: Ventricular EC25 (µM)

Completed entries (count: 3):
molecule="Cc1c(C2(C(=O)N[C@@H](C)c3cc(C#N)ccn3)CC2)c(=O)[nH]c2ccc(F)c(F)c12 (single isomer, unassigned)" system_under_test="Porcine ventricle myofibrils (ventricular myosin ATPase) (Sus scrofa)" assay_metric="Ventricular EC25" measured_number=100.00
molecule="Cc1c([C@@H](C)C(=O)N[C@@H](C)c2ccc(F)cc2F)c(=O)[nH]c2ccc(F)c(F)c12 (single isomer, unassigned)" system_under_test="Porcine ventricle myofibrils (ventricular myosin ATPase) (Sus scrofa)" assay_metric="Ventricular EC25" measured_number=0.28
molecule="C[C@@H](NC(=O)C1(c2cc3cc(F)ccc3[nH]c2=O)CC1)c1cccc(C#N)n1 (single isomer, unassigned)" system_under_test="Porcine ventricle myofibrils (ventricular myosin ATPase) (Sus scrofa)" assay_metric="Ventricular EC25" measured_number=100.00

a: Cc1c([C@H](C)C(=O)N[C@@H](C)c2ccc(F)cc2F)c(=O)[nH]c2ccc(F)c(F)c12 (single isomer, unassigned)
b: C[C@H](NC(=O)Cc1c(C2CC2)c2cc(F)ccc2[nH]c1=O)c1ccc(C#N)cc1F
c: C[C@H](NC(=O)C1(c2cc3c(F)c(F)ccc3[nH]c2=O)CC1)c1ncc(C#N)cn1 (single isomer, unassigned)
d: Cc1c([C@H](C)C(=O)N[C@H](C)c2ncc(C#N)cc2F)c(=O)[nH]c2ccc(F)c(F)c12 (single isomer, unassigned)
## Input Number of molecules to sort: 4. Sort criterion: Ventricular EC25, ascending. Answer format: list of labels, ordered as asked.
## Output d, a, b, c

---

Tested on: Rabbit Psoas myofibrils (skeletal myosin ATPase)
Assay: Myofibril ATPase assay, rabbit psoas (skeletal) myofibrils
Type: biochemical
Settings: Y75 value (no ‡ mark); rabbit psoas myofibrils
assay-metric: Skeletal EC25 (nM)

Completed entries (count: 8):
compound="COc1ccc2[nH]c(=O)c(C(C)C(=O)N[C@@H](C)c3ccc(F)cc3F)cc2c1Cl (stereo partly drawn) [compound 87]" system_under_test="Rabbit Psoas myofibrils (skeletal myosin ATPase)" measured_number=100000
compound="Cc1c(CC(=O)N[C@@H](C)c2ncc(C#N)cn2)c(=O)[nH]c2cccc(F)c12 (single isomer, unassigned) [compound 2042]" system_under_test="Rabbit Psoas myofibrils (skeletal myosin ATPase)" measured_number=2390
compound="C[C@H](NC(=O)[C@@H](C)c1cc2c(F)c(F)ccc2[nH]c1=O)c1ccc(F)cc1F (single isomer, unassigned) [compound 110]" system_under_test="Rabbit Psoas myofibrils (skeletal myosin ATPase)" measured_number=100000
compound="Cc1nc(C#N)cnc1[C@@H](C)NC(=O)Cc1cc2cc(F)c(F)cc2[nH]c1=O (single isomer, unassigned) [compound 5]" system_under_test="Rabbit Psoas myofibrils (skeletal myosin ATPase)" measured_number=3600
compound="Cc1c(C(F)(F)C(=O)N[C@@H](C)c2ncc(C#N)cn2)c(=O)[nH]c2ccc(F)c(C#N)c12 (single isomer, unassigned) [compound 2522]" system_under_test="Rabbit Psoas myofibrils (skeletal myosin ATPase)" measured_number=140
compound="Cc1c(CC(=O)N[C@H](C)c2ccc(C#N)nn2)c(=O)[nH]c2ccc(F)cc12 [compound 1119]" system_under_test="Rabbit Psoas myofibrils (skeletal myosin ATPase)" measured_number=220
compound="C[C@H](NC(=O)[C@H](C)c1cc2c(F)c(F)ccc2[nH]c1=O)c1ncc(C#N)cc1F (relative stereo) [compound 2604]" system_under_test="Rabbit Psoas myofibrils (skeletal myosin ATPase)" measured_number=540
compound="Cc1nc(C#N)ncc1[C@H](C)NC(=O)Cc1cc2cc(F)c(F)cc2[nH]c1=O [compound 1097]" system_under_test="Rabbit Psoas myofibrils (skeletal myosin ATPase)" measured_number=150

1: Cc1c(C2(C(=O)N[C@@H](C)c3ncc(C#N)cc3F)CC2)c(=O)[nH]c2ccc(F)c(C#N)c12 (single isomer, unassigned) [compound 2524]
2: Cc1nc(C#N)ncc1[C@H](C)NC(=O)Cc1c(C)c2cc(F)ccc2[nH]c1=O [compound 1053]
## Input Could you check which of 1 and 2 has a smaller value for Skeletal EC25? Pick one; state its label.
## Output 2

1: Cc1c(CC(=O)N[C@@H](C)c2ncc(C#N)cc2F)c(=O)[nH]c2ccc(F)c(C(F)(F)F)c12 [compound 22]
2: Cc1c(C2(C(=O)N[C@@H](C)c3nccc(C#N)n3)CC2)c(=O)[nH]c2ccc(F)cc12 (single isomer, unassigned) [compound 4842]
3: Cc1cc(F)cnc1[C@@H](C)NC(=O)C(F)(F)c1c(C)c2cc(F)ccc2[nH]c1=O (single isomer, unassigned) [compound 4807]
## Input Number of compounds to sort: 3. Sort criterion: Skeletal EC25, ascending. Answer format: list of labels, ordered as asked.
## Output 1, 3, 2
(1: 0 nM, 3: 820 nM, 2: 37460 nM)

A: C[C@@H](NC(=O)C1(c2cc3c(F)c(F)ccc3[nH]c2=O)CC1)c1nccc(C#N)n1 (single isomer, unassigned) [compound 2505]
B: Cc1nc(C#N)cnc1[C@H](C)NC(=O)Cc1c(C)c2c(F)c(F)ccc2[nH]c1=O [compound 1140]
C: C[C@@H](NC(=O)C1(c2cc3c(F)c(F)ccc3[nH]c2=O)CC1)c1ccc(F)cc1F [compound 4813]
## Input Parameters: sort_field (Skeletal EC25), sort_dir (desc). Answer format: list of labels, ordered as asked.
## Output A, C, B

a: C[C@H](NC(=O)[C@H](C)c1cc2c(Cl)c(O)ccc2[nH]c1=O)c1ccc(F)cc1F (single isomer, unassigned) [compound 86]
b: N#Cc1cnc2c(c1)CC[C@H]2NC(=O)Cc1cc2c(F)c(F)ccc2[nH]c1=O (single isomer, unassigned) [compound 7]
## Input Could you check which of a and b has a smaller value for Skeletal EC25? Pick one; state its label.
## Output b
(b: 810 nM, a: 100000 nM)

---

System: Rabbit Psoas myofibrils (skeletal myosin ATPase)
Assay: Myofibril ATPase assay, rabbit psoas (skeletal) myofibrils
Assay type: biochemical
Details: rabbit psoas myofibrils; Y75 value
assay-metric: Skeletal EC25 (µM)

Completed entries (count: 2):
molecule=Cc1c(CC(=O)N[C@@H](C)c2ccc(F)cc2F)c(=O)[nH]c2ccnc(OCC(F)F)c12 system_under_test="Rabbit Psoas myofibrils (skeletal myosin ATPase)" assay_metric="Skeletal EC25" measured_number=0.01
molecule="Cc1nccc2[nH]c(=O)c([C@H](C)C(=O)N[C@H](C)c3ccc(C#N)cc3F)c(C)c12 (single isomer, unassigned)" system_under_test="Rabbit Psoas myofibrils (skeletal myosin ATPase)" assay_metric="Skeletal EC25" measured_number=100.00

I: Cc1c(CC(=O)N[C@H](C)c2ncc(C#N)cc2F)c(=O)[nH]c2ccc(OC(F)(F)F)nc12
II: Cc1c([C@@H](C)C(=O)N[C@@H](C)c2ccc(F)cc2F)c(=O)[nH]c2ccnc(F)c12 (single isomer, unassigned)
## Input Between these two entries, I and II , state which has the higher Skeletal EC25. Pick one; state its label.
## Output I
(I: 5.74 µM, II: 0.03 µM)

---

Tested on: Porcine atria myofibrils (atrial myosin ATPase)
Test: Myofibril ATPase assay, porcine atria myofibrils
Type: biochemical
Conditions: porcine atria myofibrils; Y75 value (75% activity relative to no compound)
assay-metric: Atrial EC25 (µM)

compound=COC[C@H](NC(=O)Cc1c(C)c2c(C#N)nccc2[nH]c1=O)c1ncc(F)cc1F measured_number=0.13
compound="Cc1nccc2[nH]c(=O)c(CC(=O)N[C@H](C)c3ccc(O)nc3)c(C)c12 (single isomer, unassigned)" measured_number=100.00
compound=Cc1ccc2[nH]c(=O)c(CC(=O)N[C@@H](C)c3ccc(F)cc3F)c(C)c2n1 measured_number=0.11
compound=Cc1c(CC(=O)N[C@@H](C)c2ccc(F)cc2F)c(=O)[nH]c2ccnnc12 measured_number=2.66
compound=Cc1c(CC(=O)N[C@@H](C)c2ccc(C#N)cc2F)c(=O)[nH]c2ccnc(C(F)(F)F)c12 measured_number=0.13
compound=Cc1c(CC(=O)N[C@H](CO)c2ncc(C#N)cc2F)c(=O)[nH]c2cnnc(C#N)c12 measured_number=0.94
compound=C[C@H](NC(=O)Cc1cc2c(Cl)nccc2[nH]c1=O)c1ccc(F)cc1F measured_number=0.06
compound=Cc1c(CC(=O)N[C@H](CO)c2ccc(C#N)cc2F)c(=O)[nH]c2ccc(C#N)nc12 measured_number=100.00

I: C[C@@H](NC(=O)Cc1c(Cl)c2cnccc2[nH]c1=O)c1ccc(C#N)cn1
II: Cc1c(CC(=O)N[C@@H](C)c2ccc(C#N)cn2)c(=O)[nH]c2ccncc12
## Input Could you check which of I and II has a smaller value for Atrial EC25? Pick one; state its label.
## Output I
